Values were extracted from PubChem BioAssay AID449762.

inhibition values for the compounds below.
assay: M. tuberculosis growth inhibition, HTS (AID 449762);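 also: bacterial growth assessed after seven days of incubation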; conditions: M. tuberculosis H37Rv growth inhibition, 7H9 media; at 25 µM; active compounds read high
Among all 330,000 compounds or so, about 1,900 (0.58%) were called active. Not shown: some 4% with an inconclusive outcome. Only a sample is shown. Measured potencies and affinities stand elsewhere.
Answer with a number only, understood to be in %.

In one line, give reported inhibition of the entry "CN1C(=O)N(C)c2cccc3cccc1c23" .
7.44

In one line, give reported inhibition of the entry "COc1ccc2c3n([n+]([O-])c2c1)CCN=C3c1ccc(C)cc1" .
17

----------
experiment: M. tuberculosis growth inhibition, HTS (AID 449762);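 also: bacterial growth assessed after seven days of incubation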; settings: M. tuberculosis H37Rv growth inhibition, 7H9 media; at 25 µM; active compounds read high
Hit rate of the full screen: of about 330,000 compounds, about 1,900 (0.58%) were called active. Another 4% or so got no clear call; they are omitted. A selection follows. Results with a measured potency or affinity are listed apart.
inhibition values for the molecules below.
Answer with a number only, understood to be in %.

// solved cases for inhibition follow
molecule | inhibition (%)
CN(CC(=O)NC(=O)NCc1ccco1)Cc1nc2ccccc2c(=O)[nH]1 | -5.09
Cc1cc(-n2nc(C)cc2C)nc(N)n1 | -2.23
Cc1c2cnn(CC(=O)Nc3cccc(C(F)(F)F)c3)c(=O)c2c(C)n1Cc1ccccc1F | -1.26
CCOC(=O)N1CCN(C(=O)c2cccc(S(=O)(=O)Nc3ccc(Br)cc3)c2)CC1 | 8.88

In one line, give reported inhibition of the entry "O=C(CN1CCN(c2ncccn2)CC1)NCc1ccc2c(c1)OCO2" .
-8.33

In one line, give reported inhibition of the entry O=C(NC1(C(F)(F)F)NC(=O)N(C2CCCCC2)C1=O)C1CC1 (stereo not drawn) .
-5.69

In one line, give reported inhibition of the entry CCCCS(=O)(=O)/C=C\C1C2C=CC(C2)C1S(=O)(=O)CCCC (stereo not drawn) .
0.63

In one line, give reported inhibition of the entry "CC(=O)c1ccc(N2CCN(C(=O)c3cc4c(C)nc5ccccc5c4o3)CC2)cc1" .
4.42

----------
experiment: M. tuberculosis growth inhibition, HTS (AID 449762);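 also: bacterial growth assessed after seven days of incubation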; conditions: M. tuberculosis H37Rv growth inhibition, 7H9 media; at 25 µM; active compounds read high
The whole screen tested about 330,000 compounds, of which about 1,900 (0.58%) were called active. Not shown: some 4% with an inconclusive outcome. Not all results are given here. Potency and affinity values are given separately.
inhibition values for the compounds below.
Answer with a number only, understood to be in %.

// solved cases for inhibition follow
compound | inhibition, %
COc1ccc(COc2cc(-c3cccc(OC)c3)nc3ccc(NC(=O)c4ccc(N(C)C)cc4)cc23)cc1 | -16.9
CCOC(=O)Cn1cnc2c(nnn2-c2ccc(OC)cc2)c1=O | -2.34
COc1ccc2c(c1)[C@H]1[C@H](CO2)[C@H](c2ccccc2)[C@]2(C)C(=O)Nc3ccc(C)cc3C(=O)N12 | 1.01

# input for lookup
In one line, give reported inhibition of the entry CCOC(=O)c1sc(NC(=O)CN2C(=O)NC3(CC(C)CC(C)(C)C3)C2=O)c(C(=O)OCC)c1C (centres undefined) .
5.68

----------
inhibition values for the molecules below.
assay: M. tuberculosis growth inhibition, HTS (AID 449762);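 also: bacterial growth assessed after seven days of incubation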; details: M. tuberculosis H37Rv growth inhibition, 7H9 media; at 25 µM; active compounds read high
Screen size: about 330,000 compounds; about 1,900 (0.58%) were called active. Not shown: some 4% with an inconclusive outcome. A selection follows. Measured potencies and affinities stand elsewhere.
Answer with a number only, understood to be in %.

// solved cases for inhibition follow
molecule | recorded endpoint | unit | test value
CCCn1cc(S(=O)(=O)c2ccc(F)cc2)c(=O)c2cc(OCC)ccc21 | inhibition | % | 4.19
O=C(Nc1ccccc1)C1C2/C=C\CCCCC21 (stereo not given) | inhibition | % | 5.24
COc1ccc(CCNC(=O)CCNS(=O)(=O)c2cccc3nonc23)cc1OC | inhibition | % | 2.46
CC(OC(=O)/C=C/c1ccc2ccccc2n1)C(=O)N(C)c1ccccc1 (stereo not given) | inhibition | % | -4.67
CC(C)C1CC(CCN)(Cc2ccccc2)CCO1 (stereo not given) | inhibition | % | 1.79
COC(=O)[C@@H](NC(=O)N1CCN(c2cccc(C(F)(F)F)c2)CC1)C(C)C | inhibition | % | 5.31

In one line, give reported inhibition of the entry "Cc1ccc(-c2noc(CCC(=O)N3CCCc4ccccc43)n2)cc1" .
6.56

In one line, give reported inhibition of the entry "CCCCOc1ccc(-c2nnn(CC(=O)Nc3ncc(CC(=O)OCC)s3)n2)cc1" .
4.47

In one line, give reported inhibition of the entry "Cc1cc(C(=O)OCC(=O)Nc2cccc(F)c2)c(C)n1C1CC1" .
0.41

In one line, give reported inhibition of the entry "S=c1nccc(-c2ccc(Cl)cc2)[nH]1" .
54.5

----------
test: M. tuberculosis growth inhibition, HTS (AID 449762);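 also: bacterial growth assessed after seven days of incubation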; conditions: M. tuberculosis H37Rv growth inhibition, 7H9 media; at 25 µM; active compounds read high
In all, about 330,000 compounds went through this assay and about 1,900 (0.58%) were called active. About 4% were inconclusive and are not listed. These entries were drawn from the full list. Measured potencies and affinities stand elsewhere.
recorded endpoint: inhibition (%)
Answer with a number only, understood to be in %.

// solved cases for inhibition follow
molecule | inhibition (%)
O=C1CC(=O)N(c2ccccc2)c2ccccc21 | 8.88
CN(C)c1ccc(C=C2C(=O)OC(C)(C(C)(C)C)OC2=O)cc1 (stereo unspecified) | 0.2
Nc1c(C(=O)OCC(=O)NCc2ccccc2)[nH]c(=O)[nH]c1=O | 1.89
O=C(N/N=C/c1ccco1)c1cc(-c2ccc3ccccc3c2)n[nH]1 | 14.2
COc1cc(C(CCN2CCCC2)c2c(OC)cc(OC)c3c(-c4ccccc4)cc(=O)oc23)cc(OC)c1OC (stereo unspecified) | 56.2
CCCSc1nc2c(cnn2-c2ccc(Cl)cc2)c(=O)[nH]1 | 6.95
COc1ccc(-c2ccc(-c3nnn(CC(C)=O)n3)cc2)cc1 | 12.6
Cc1ccc(NC(=O)CCN2C(=O)c3cccc([N+](=O)[O-])c3C2=O)c(Br)c1 | 7.28
CCOC(=O)c1c(NC(=O)CCCC(=O)O)sc2c1CCC2 | 1.76
O=C(Nc1cccnc1)C1CCN(S(=O)(=O)c2ccc(Cl)cc2)CC1 | 0.94

In one line, give reported inhibition of the entry "CO/N=C/NC(=O)NOCc1c(Cl)cccc1Cl" .
-5.31

In one line, give reported inhibition of the entry "NC(=O)NOCc1c(Cl)cccc1Cl" .
-2.55

In one line, give reported inhibition of the entry CCOc1ccc2nc(SC3CC(=O)N(c4ccc(OC)cc4OC)C3=O)sc2c1 (stereo unspecified) .
37.3

In one line, give reported inhibition of the entry "O=[N+]([O-])c1ccc(/C=N/Nc2nc(N3CCCCCC3)nc(N3CCCCCC3)n2)o1" .
-9.1

In one line, give reported inhibition of the entry COc1ccc(C2COc3cc(O)ccc3C2)c(OC)c1O (stereo unspecified) .
-7.8

In one line, give reported inhibition of the entry "NS(=O)(=O)c1ccc(NC(=O)CSc2ncnc3ccccc23)cc1" .
0.11

In one line, give reported inhibition of the entry "Cc1nnc(NC(=O)CSc2nnc(Cc3cccn3C)n2C)s1" .
-5.68

In one line, give reported inhibition of the entry "NS(=O)(=O)c1ccc(N=Nc2ccc(O)c3ncccc23)cc1" .
-1.88

In one line, give reported inhibition of the entry "O=C(/C=C/c1ccc(OC2CSC2)cc1)c1ccc(Cl)cc1" .
11.9

In one line, give reported inhibition of the entry CC1=NN(C(=O)c2ccccc2)C(O)(c2ccc(Br)cc2)C1 (stereo unspecified) .
-3.64

In one line, give reported inhibition of the entry "O=S(=O)(c1ccc(F)cc1)n1ccc2cccnc21" .
4.44
